Below, each entry is listed alongside its reported HR.
Organism: Canis familiaris
Assay: Ionotropic selectivity expressed as change in heart rate for 100 percent increase in right ventricular contractile force in dogs
Format: functional, Canis lupus familiaris
property measured: HR

>  <compound>
CC(CCc1ccc(O)cc1)NC1CCc2c(ccc(O)c2O)C1 (stereo unspecified)

>  <reported>
41 beats min-1

$$$$
>  <compound>
Oc1cc2c(cc1O)CC(NC1CCc3cc(O)c(O)cc3C1)CC2 (stereo unspecified)

>  <reported>
62 beats min-1

$$$$
>  <compound>
NCCc1ccc(O)c(O)c1

>  <reported>
12 beats min-1

$$$$
>  <compound>
CC(Cc1ccc(O)c(O)c1)NC1CCc2cc(O)c(O)cc2C1 (stereo unspecified)

>  <reported>
4 beats min-1

$$$$
>  <compound>
CC(C)NCC(O)c1ccc(O)c(O)c1 (stereo unspecified)

>  <reported>
35 beats min-1

$$$$
>  <compound>
Oc1ccc(CCNC2CCc3cc(O)c(O)cc3C2)cc1O (stereo unspecified)

>  <reported>
30 beats min-1

$$$$
>  <compound>
NC1CCc2cc(O)c(O)cc2C1 (stereo unspecified)

>  <reported>
21 beats min-1

$$$$
>  <compound>
CC(Cc1ccc(O)c(O)c1)NC1CCc2c(ccc(O)c2O)C1 (stereo unspecified)

>  <reported>
40 beats min-1

$$$$
>  <compound>
CC(CCc1ccc(O)c(O)c1)NC1CCc2cc(O)c(O)cc2C1 (stereo unspecified)

>  <reported>
45 beats min-1

$$$$
>  <compound>
CC(CCc1ccc(O)cc1)NCCc1ccc(O)c(O)c1 (stereo unspecified)

>  <reported>
17 beats min-1

$$$$
>  <compound>
CC(CCc1ccc(O)cc1)NC1CCc2cc(O)c(O)cc2C1 (stereo unspecified)

>  <reported>
19 beats min-1

$$$$

====

Organism: Canis familiaris
Assay: Cardioselectivity expressed as change in blood pressure for 50% increase in right ventricular contractile force in dogs
Format: functional, Canis lupus familiaris
API: label(entry) gives Condition met if the entry's BP is strictly smaller than -20 mmHg; on equality or larger values it gives Condition not met.

>  <compound>
CC(CCc1ccc(O)c(O)c1)NC1CCc2cc(O)c(O)cc2C1 (centres undefined)

>  <answer label>
Condition met

$$$$
>  <compound>
CC(CCc1ccc(O)cc1)NC1CCc2cc(O)c(O)cc2C1 (centres undefined)

>  <answer label>
Condition not met

$$$$
>  <compound>
CC(C)NCC(O)c1ccc(O)c(O)c1 (centres undefined)

>  <answer label>
Condition not met

$$$$
>  <compound>
NC1CCc2c(ccc(O)c2O)C1 (centres undefined)

>  <answer label>
Condition not met

$$$$
>  <compound>
CC(CCc1ccc(O)cc1)NCCc1ccc(O)c(O)c1 (centres undefined)

>  <answer label>
Condition not met

$$$$
>  <compound>
Oc1ccc(CCNC2CCc3cc(O)c(O)cc3C2)cc1O (centres undefined)

>  <answer label>
Condition not met

$$$$
>  <compound>
NCCc1ccc(O)c(O)c1

>  <answer label>
Condition not met

$$$$
>  <compound>
CC(C)NC1CCc2c(ccc(O)c2O)C1 (centres undefined)

>  <answer label>
Condition met

$$$$
>  <compound>
CC(Cc1ccc(O)c(O)c1)NC1CCc2cc(O)c(O)cc2C1 (centres undefined)

>  <answer label>
Condition met

$$$$
>  <compound>
CC(Cc1ccc(O)c(O)c1)NC1CCc2c(ccc(O)c2O)C1 (centres undefined)

>  <answer label>
Condition met

$$$$
>  <compound>
CC(C)NC1CCc2cc(O)c(O)cc2C1 (centres undefined)

>  <answer label>
Condition not met

$$$$
>  <compound>
CC(CCc1ccc(O)cc1)NC1CCc2c(ccc(O)c2O)C1 (centres undefined)

>  <answer label>
Condition met

$$$$
>  <compound>
Oc1cc2c(cc1O)CC(NC1CCc3cc(O)c(O)cc3C1)CC2 (centres undefined)

>  <answer label>
Condition not met

$$$$
>  <compound>
NC1CCc2cc(O)c(O)cc2C1 (centres undefined)

>  <answer label>
Condition not met

$$$$

The origin of these recorded values is ChEMBL document CHEMBL1121893.
